B1: NEK8 (parent)
chain: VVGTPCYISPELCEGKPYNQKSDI

Variants of: B1
protocol_details: protein stability index of a GFP-peptide fusion (GPS, HEK-293T) (PSI 1-6); higher = more stable;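 also: lentivirally expressed fusions sorted by FACS into six bins by GFP to DsRed ratio, PSI derived from sequencing read proportions per bin multiplied by bin number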
conditions: c terminus: a fixed tail appended
outcome_measure: protein stability index
API doc: respond with a numeric literal and nothing else, no unit.

# protein stability index (variant: S22L ) is 2.63

# protein stability index (variant: K21V ) is 1.99

# protein stability index (variant: P5V ) is 1.89

# protein stability index (variant: C6N ) is 2.38

# protein stability index (variant: T4G ) is 3.34

# protein stability index (variant: K16L ) is 2.07

# protein stability index (variant: E14I ) is 2.2

# protein stability index (variant: D23M ) is 2.18

# protein stability index (variant: G15C ) is 2.47

# protein stability index (variant: Y18K ) is 3.67

# protein stability index (variant: K16M ) is 2.81

# protein stability index (variant: V2T ) is 3.73

# protein stability index (variant: K21Y ) is 2.2

# protein stability index (variant: K21W ) is 2.65

# protein stability index (variant: L12T ) is 3.15

# protein stability index (variant: V2C ) is 2.89

# protein stability index (variant: L12W ) is 1.83

# protein stability index (variant: V1L ) is 3.1

# protein stability index (variant: V1I ) is 2.32

# protein stability index (variant: Y7M ) is 3.97

# protein stability index (variant: E11L ) is 1.8

# protein stability index (variant: E14M ) is 2.28

# protein stability index (variant: K16V ) is 2.78

# protein stability index (variant: K16A ) is 2.16

# protein stability index (variant: P5M ) is 2.75

# protein stability index (variant: V2Y ) is 3.23

# protein stability index (variant: V1W ) is 2.62

# protein stability index (variant: C13F ) is 2.19

# protein stability index (variant: Y7S ) is 3.69

# protein stability index (variant: Y7G ) is 3.98

# protein stability index (variant: I24E ) is 2.94
